Would you kindly list viability, T/C for each of these molecules?
tested on: 997537-175-T-J1-PDC complex spheroid viability; assay: Anticancer human tumor 997537-175-T-J1-PDC patient-derived colon adenocarcinoma cell line growth inhibition [GQUAD]; conditions: second compound 1 µM; first compound 1 µM; active compounds read low;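 note: spheroids exposed to the agents for 7 days; 100% = DMSO vehicle control viability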
Please reply with the bare figure in % and do not write the unit itself.

Identify measured viability, T/C corresponding to O=C(NO)c1cnc(N2CCN(S(=O)(=O)c3ccc4ccccc4c3)CC2)nc1 + CN(C)c1ccc(Nc2c3ccc(NC(=O)CCN4CCCC4)cc3nc3cc(NC(=O)CCN4CCCC4)ccc23)cc1 77.8

Identify measured viability, T/C corresponding to C=CC(=O)N1CCN(c2nc(=O)n(-c3c(C)ccnc3C(C)C)c3nc(-c4c(O)cccc4F)c(F)cc23)C(C)C1 (stereo not given) + CN(C)c1ccc(Nc2c3ccc(NC(=O)CCN4CCCC4)cc3nc3cc(NC(=O)CCN4CCCC4)ccc23)cc1 67.9

Identify measured viability, T/C corresponding to COc1cccc2c1C(=O)c1c(O)c3c(c(O)c1C2=O)CC(O)(C(=O)CO)CC3OC1CC(N)C(O)C(C)O1 (stereo not given) + Cc1[nH]c2ccc(F)cc2c1-c1nc2c3cccnc3c3ncccc3c2[nH]1 85.4

Identify measured viability, T/C corresponding to Cc1cccc(N(C)C(=O)C2C(O)CCN2c2nc(C)cc(C(F)(F)F)c2C#N)c1 (stereo not given) + Cc1[nH]c2ccc(F)cc2c1-c1nc2c3cccnc3c3ncccc3c2[nH]1 85.4

Identify measured viability, T/C corresponding to O=C(c1cc(Cc2n[nH]c(=O)c3ccccc23)ccc1F)N1CCN(C(=O)C2CC2)CC1 + Cc1cnc(CNC(=O)c2c(=O)c3ccc(N4CCCN(C)CC4)nc3n3c2sc2ccccc23)cn1 89.5

Identify measured viability, T/C corresponding to CC(C)n1c(=O)n(C)c2cnc3cc(F)c(-c4ccc(OCCCN5CCCCC5)nc4)cc3c21 + Cc1[nH]c2ccc(F)cc2c1-c1nc2c3cccnc3c3ncccc3c2[nH]1 107

Identify measured viability, T/C corresponding to C=CCn1c(=O)c2cnc(Nc3ccc(N4CCN(C)CC4)cc3)nc2n1-c1cccc(C(C)(C)O)n1 + Cc1cnc(CNC(=O)c2c(=O)c3ccc(N4CCCN(C)CC4)nc3n3c2sc2ccccc23)cn1 61.1

Identify measured viability, T/C corresponding to CC1COCCN1c1cc(-c2ccnn2C)c2ccnc(-c3ccn[nH]3)c2n1 (stereo not given) + Cc1[nH]c2ccc(F)cc2c1-c1nc2c3cccnc3c3ncccc3c2[nH]1 21.6

Identify measured viability, T/C corresponding to O=c1[nH]cc(F)c(=O)[nH]1 + Cc1[nH]c2ccc(F)cc2c1-c1nc2c3cccnc3c3ncccc3c2[nH]1 87.2

Identify measured viability, T/C corresponding to CC1COCCN1c1cc(C2(O)CC3CCC(C2)O3)c2cnn(-c3ccn[nH]3)c2n1 (stereo not given) + CN(C)c1ccc(Nc2c3ccc(NC(=O)CCN4CCCC4)cc3nc3cc(NC(=O)CCN4CCCC4)ccc23)cc1 40.7

Identify measured viability, T/C corresponding to C#Cc1c(F)ccc2cc(O)cc(-c3ncc4c(N5CC6CCC(C5)N6)nc(OCC56CCCN5CC(F)C6)nc4c3F)c12 (stereo not given) + CN(C)c1ccc(Nc2c3ccc(NC(=O)CCN4CCCC4)cc3nc3cc(NC(=O)CCN4CCCC4)ccc23)cc1 82.9

Identify measured viability, T/C corresponding to CC(=O)O[C@H]1C(=O)[C@@]2(C)[C@H]([C@H](OC(=O)c3ccccc3)[C@]3(O)C[C@H](OC(=O)[C@H](O)[C@@H](NC(=O)c4ccccc4)c4ccccc4)C(C)=C1C3(C)C)[C@]1(OC(C)=O)CO[C@@H]1C[C@@H]2O + CN(C)c1ccc(Nc2c3ccc(NC(=O)CCN4CCCC4)cc3nc3cc(NC(=O)CCN4CCCC4)ccc23)cc1 18.1

Identify measured viability, T/C corresponding to CC1COCCN1c1cc(C2(S(C)(=N)=O)CC2)nc(-c2ccnc3[nH]ccc23)n1 (stereo not given) + Cc1cnc(CNC(=O)c2c(=O)c3ccc(N4CCCN(C)CC4)nc3n3c2sc2ccccc23)cn1 65.8

Identify measured viability, T/C corresponding to CC1COCCN1c1cc(C2(O)CC3CCC(C2)O3)c2cnn(-c3ccn[nH]3)c2n1 (stereo not given) + Cc1cnc(CNC(=O)c2c(=O)c3ccc(N4CCCN(C)CC4)nc3n3c2sc2ccccc23)cn1 42.9

Identify measured viability, T/C corresponding to CC(C)(O)C1CCC(Nc2ccc3ncc(-c4cccc(C(F)(F)F)c4)n3n2)CC1 (stereo not given) + CN(C)c1ccc(Nc2c3ccc(NC(=O)CCN4CCCC4)cc3nc3cc(NC(=O)CCN4CCCC4)ccc23)cc1 81

Identify measured viability, T/C corresponding to O=C(NO)c1cnc(N2CCN(S(=O)(=O)c3ccc4ccccc4c3)CC2)nc1 + Cc1cnc(CNC(=O)c2c(=O)c3ccc(N4CCCN(C)CC4)nc3n3c2sc2ccccc23)cn1 93

Identify measured viability, T/C corresponding to COc1cc(C2c3cc4c(cc3C(OC3OC5COC(C)OC5C(O)C3O)C3COC(=O)C23)OCO4)cc(OC)c1O (stereo not given) + Cc1cnc(CNC(=O)c2c(=O)c3ccc(N4CCCN(C)CC4)nc3n3c2sc2ccccc23)cn1 101

Identify measured viability, T/C corresponding to COc1ccc([C@@H](O)c2cc(-c3ncnc4cc(N5CCOCC5)ccc34)c(F)cc2Cl)nn1 + Cc1[nH]c2ccc(F)cc2c1-c1nc2c3cccnc3c3ncccc3c2[nH]1 72

Identify measured viability, T/C corresponding to C=CC(=O)N1CCN(c2nc(=O)n(-c3c(C)ccnc3C(C)C)c3nc(-c4c(O)cccc4F)c(F)cc23)C(C)C1 (stereo not given) + Cc1cnc(CNC(=O)c2c(=O)c3ccc(N4CCCN(C)CC4)nc3n3c2sc2ccccc23)cn1 95

Identify measured viability, T/C corresponding to CCCS(=O)(=O)Nc1ccc(F)c(C(=O)c2c[nH]c3ncc(-c4ccc(Cl)cc4)cc23)c1F + CN(C)c1ccc(Nc2c3ccc(NC(=O)CCN4CCCC4)cc3nc3cc(NC(=O)CCN4CCCC4)ccc23)cc1 43.3
